Ref: the supplement of paper PMC12042874

# Assay notes: amyloid nucleation score (Sup35N fusion, yeast selection) (log enrichment); library NNK2; higher = more nucleation; inactive = no reads after selection;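 also: zero at mode of non-aggregating sequences after 7 days selection at 30°C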
Reported amyloid nucleation score values follow for various substances

[
  {
    "Substance": "ASLSAFWSLTIVRVLPDKQV",
    "amyloid nucleation score": 0.722
  },
  {
    "Substance": "FKIVALTTVNIVLRDSWCNP",
    "amyloid nucleation score": 6.2
  },
  {
    "Substance": "KTSWVVYDGFRARDARSWRS",
    "amyloid nucleation score": -0.245
  },
  {
    "Substance": "FNMDGYGRTGVRPFCRYVLN",
    "amyloid nucleation score": 0.333
  },
  {
    "Substance": "NHLGLTDCTFQGLDSG",
    "amyloid nucleation score": -1.09
  },
  {
    "Substance": "STEAVMLQGVFHRSCCR",
    "amyloid nucleation score": 0.761
  },
  {
    "Substance": "LSHLFSV",
    "amyloid nucleation score": -0.381
  },
  {
    "Substance": "TSTLNRDDG",
    "amyloid nucleation score": 0.367
  },
  {
    "Substance": "SSANDNLNTERDQARLVTRC",
    "amyloid nucleation score": -0.013
  },
  {
    "Substance": "PMKLTILDTNGCNINRAPFS",
    "amyloid nucleation score": -1.02
  },
  {
    "Substance": "SGIRDTLVSWGPRGMG",
    "amyloid nucleation score": -0.309
  },
  {
    "Substance": "FCTHPSFGTVMGMRAETGLD",
    "amyloid nucleation score": 0.516
  },
  {
    "Substance": "TFRWCHCYLTKEHVRFTCRA",
    "amyloid nucleation score": 1.55
  },
  {
    "Substance": "SNYDGPGSYIYEKYCSSEEG",
    "amyloid nucleation score": -0.703
  },
  {
    "Substance": "RLNALLVWFVRVSMALVRES",
    "amyloid nucleation score": -0.661
  },
  {
    "Substance": "RDVRQVQRWSYCWRARTRSA",
    "amyloid nucleation score": 1.19
  },
  {
    "Substance": "HCRKQIMMGDFKIQGNRGVG",
    "amyloid nucleation score": 0.448
  },
  {
    "Substance": "VLSWGFKGNAKPHHTDSLKG",
    "amyloid nucleation score": 0.603
  },
  {
    "Substance": "VWVCSRTGQSQYIISYTALW",
    "amyloid nucleation score": 1.65
  },
  {
    "Substance": "KGTYNDIMLRYACCMAGVKR",
    "amyloid nucleation score": -0.053
  },
  {
    "Substance": "KFASVYWLGLFPLLMPTVVS",
    "amyloid nucleation score": 0.89
  }
]
